tested on: isolierten, elektrisch gereizten, linken Vorhöfen des Meerschweinchens; experiment: positive inotropic effect on isolated, electrically stimulated left atria (method after J.V. Levy); type: cell-based, Meerschweinchen; settings: Cavia porcellus; extent of positive inotropic effect in % of the maximal increase of contraction force by Isoproterenol; read-out: Ausmass der Wirkung (% von ISOmax)
Below: a set of entries, each annotated with reported Emax.
observed-property: Emax (%)

CCOC(=O)C1=C(C)NC2=C(C(=O)OC2)C1c1ccccc1SC(F)F (stereo not shown): 80
CCOC(=O)C1=C(C)NC2=C(C(=O)OC2)C1c1cccc(OC(F)F)c1OC(F)F (stereo not shown): 14
CCOC(=O)C1=C(C)NC2=C(C(=O)OC2)C1c1ccccc1OCCOC (stereo not shown): 80
CCOC(=O)C1=C(C)NC2=C(C(=O)OC2)C1c1cccc(OC(F)F)c1 (stereo not shown): 65

====

tested on: isolierten, elektrisch gereizten, linken Vorhöfen des Meerschweinchens; test: positive inotropic effect on isolated, electrically stimulated left atria (method after J.V. Levy); type: cell-based, Meerschweinchen; conditions: Cavia porcellus; extent of positive inotropic effect in % of the maximal increase of contraction force by Isoproterenol; read-out: Ausmass der Wirkung (% von ISOmax)
Below: a set of entries, each annotated with reported Emax.
observed-property: Emax (%)

CC1=C(C#N)C(c2ccccc2OC(F)F)C2=C(COC2=O)N1 (stereo not drawn): 68
COC(=O)C1=C(C)NC2=C(C(=O)OC2)C1c1ccccc1OC(F)F (stereo not drawn): 70
CC1=C(C(=O)OC(C)C)C(c2ccccc2OC(F)F)C2=C(COC2=O)N1 (stereo not drawn): 70
